B1: TPR t1 (parent)
chain: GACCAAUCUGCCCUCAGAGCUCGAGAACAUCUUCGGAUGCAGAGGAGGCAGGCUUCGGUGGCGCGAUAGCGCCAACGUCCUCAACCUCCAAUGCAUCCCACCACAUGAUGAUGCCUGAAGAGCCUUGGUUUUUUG

# Variants of: B1
# test_summary: polymerase ribozyme fitness, log enrichment relative to wild type (log ratio); higher = more active; in vitro selection for triplet polymerase activity
readout: polymerase ribozyme fitness (log ratio)
Give bare numbers.

Before answering, review these 6 worked examples.
- residue_change: "G19U C72U A84C"
  readout: "polymerase ribozyme fitness (log ratio)"
  measured_result: -2.82
- residue_change: "C4A G36A C73A"
  readout: "polymerase ribozyme fitness (log ratio)"
  measured_result: -3.19
- residue_change: "C12U A46G C62A U67C U112A U129G"
  readout: "polymerase ribozyme fitness (log ratio)"
  measured_result: -4.48
- residue_change: "A26U C62A A83U G117A"
  readout: "polymerase ribozyme fitness (log ratio)"
  measured_result: -6.44
- residue_change: "C101G U112A U116A U126A G127U"
  readout: "polymerase ribozyme fitness (log ratio)"
  measured_result: -2.86
- residue_change: "U7A G35A U78G"
  readout: "polymerase ribozyme fitness (log ratio)"
  measured_result: -4.41

Fill in polymerase ribozyme fitness (log ratio) for each of the 2 variants listed.
1. A83C C86G
2. C11G C31G

-1.46
-4.32

Fill in polymerase ribozyme fitness (log ratio) for each of the 7 variants listed.
1. A84C C98A C114G U116C
2. C12U C79G
3. G47C C88A C124A
4. C34A G117U
5. A29U C53U C79U A111C G120C
6. A5U G47A C124U U126A
7. C72A C80U C88U

1. -4.74
2. -1.07
3. -0.557
4. -6.2
5. -3.26
6. 0.649
7. -0.793
